- target: P2Y purinoceptor 12 (Homo sapiens, UniProt Q9H244)
- Sequence (Q9H244 whole entry): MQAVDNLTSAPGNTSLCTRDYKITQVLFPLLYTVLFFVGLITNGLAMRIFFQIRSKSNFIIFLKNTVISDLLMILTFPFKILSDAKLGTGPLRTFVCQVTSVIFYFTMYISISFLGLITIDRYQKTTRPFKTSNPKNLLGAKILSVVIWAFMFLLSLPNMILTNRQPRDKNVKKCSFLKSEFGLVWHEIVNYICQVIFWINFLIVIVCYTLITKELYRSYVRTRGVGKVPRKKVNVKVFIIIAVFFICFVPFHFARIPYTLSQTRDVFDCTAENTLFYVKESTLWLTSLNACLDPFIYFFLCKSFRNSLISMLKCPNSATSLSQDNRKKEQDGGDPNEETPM
- test-protocol: Displacement of [3H]-2-methyl-thio-adenosine 5'-diphosphate from human recombinant P2Y12 expressed in CHO cell membranes by scintillation counting method
Hi there, I'd appreciate the recorded IC50 for every entry that follows.
The reply should contain only the number, in nM.

Incoming: Can you share its IC50? I mean this compound: "CCOC(=O)N1CCN(C(=O)[C@H](CCC(=O)O)NC(=O)c2cc(NC(C)C)nc(-c3ccccc3)n2)CC1"
Outgoing: 95.5

Incoming: Can you share its IC50? I mean this compound: "CCOC(=O)N1CCN(C(=O)[C@H](CCC(=O)O)NC(=O)c2cc(N3CC[C@@H](O)C3)nc(-c3ccccc3)n2)CC1"
Outgoing: 52

Incoming: Can you share its IC50? I mean this compound: "CCOC(=O)N1CCN(C(=O)[C@H](CCC(=O)O)NC(=O)c2cc(N[C@@H]3CCOC3)nc(-c3ccccc3)n2)CC1"
Outgoing: 25

Incoming: Can you share its IC50? I mean this compound: "CCOC(=O)N1CCN(C(=O)[C@H](CCC(=O)O)NC(=O)c2cc(C(C)(C)C)nc(-c3ccccc3)n2)CC1"
Outgoing: 36

Incoming: Can you share its IC50? I mean this compound: "CCCCOC(=O)N1CCN(C(=O)[C@H](CCC(=O)O)NC(=O)c2cc([C@H]3C[C@@H]3COC)nc(-c3ccccc3)n2)CC1"
Outgoing: 4.8

Incoming: Can you share its IC50? I mean this compound: CCOC(=O)N1CCN(C(=O)[C@H](CCC(=O)O)NC(=O)c2cc(N3CCCC(O)C3)nc(-c3ccccc3)n2)CC1 (stereo partly specified)
Outgoing: 21

Incoming: Can you share its IC50? I mean this compound: "CCOC(=O)N1CCN(C(=O)[C@H](CCC(=O)O)NC(=O)c2cc(-c3ccc(OC)cc3)nc(-c3ccccc3)n2)CC1"
Outgoing: 31

Incoming: Can you share its IC50? I mean this compound: "CCOC(=O)N1CCN(C(=O)[C@H](CCC(=O)O)NC(=O)c2cc(CN3CCCCC3)nc(-c3ccccc3)n2)CC1"
Outgoing: 533

Incoming: Can you share its IC50? I mean this compound: "CCOC(=O)N1CCN(C(=O)[C@H](CCC(=O)O)NC(=O)c2cc(C(C)(C)CO)nc(-c3ccccc3)n2)CC1"
Outgoing: 21

Incoming: Can you share its IC50? I mean this compound: "CCOC(=O)N1CCN(C(=O)[C@H](CCC(=O)O)NC(=O)c2cc(N3CC[C@H](OC)C3)nc(-c3ccccc3)n2)CC1"
Outgoing: 16

Incoming: Can you share its IC50? I mean this compound: "CCCNc1cc(C(=O)N[C@@H](CCC(=O)O)C(=O)N2CCN(C(=O)OCC)CC2)nc(-c2ccccc2)n1"
Outgoing: 162
